Where do the numbers come from? From patent US20220324953A1.

Below: a set of entries, each annotated with reported kon.
# System Tested: T1, mouse CTGF (antigen of the Biacore assay) (mouse, UniProt P29268 26-348)
# T1 construct: also called mouse CTGF protein
# T1 sequence (looked up): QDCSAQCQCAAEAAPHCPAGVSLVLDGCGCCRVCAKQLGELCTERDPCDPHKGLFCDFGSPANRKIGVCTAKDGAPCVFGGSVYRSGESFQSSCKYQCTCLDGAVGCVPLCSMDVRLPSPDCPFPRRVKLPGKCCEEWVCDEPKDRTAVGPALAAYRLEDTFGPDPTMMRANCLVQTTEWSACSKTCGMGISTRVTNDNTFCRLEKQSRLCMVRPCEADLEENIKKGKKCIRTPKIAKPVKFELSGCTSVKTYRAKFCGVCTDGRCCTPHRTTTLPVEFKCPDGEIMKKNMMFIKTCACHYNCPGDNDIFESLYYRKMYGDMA
# Assay Overview: Biacore, antibody captured on Protein A, mouse CTGF in flow, 1:1 fit
Express the result in M⁻¹ s⁻¹ but write the number alone.

Binder: Hu95-21wk (antibody, human IgG1, kappa, V domains shown) VH: EVQLVQSGAEVKKPGASVKVSCKASGFTFTNYDIHWVRQAPGQRLEWIGLVYPYNGGTAYNQKFKDRATLTFDTSASTAYMELSSLRSEDTAVYYCARWGLIPGTTSYFDVWGQGTTVTVSS VL: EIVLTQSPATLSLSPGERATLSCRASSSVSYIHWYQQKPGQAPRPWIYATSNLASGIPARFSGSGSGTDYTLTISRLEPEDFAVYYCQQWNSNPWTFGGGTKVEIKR
Quantity: kon
Readout Unit: M⁻¹ s⁻¹
Experimental Result: 5.29e+06

For the next question, use this binder.
[Q] Item Hu164-57wl (antibody, human IgG1, lambda, V domains shown) VH: EVTLKESGPVLVKPTETLTLTCTVSGFSLSTFGVHWIRQPPGKALEWLAVIWRRGGTDYNAAFMSRLTISKDTSKSQVVLTMTNMDPVDTATYYCARDGGFDYWGQGTTVTVSS VL: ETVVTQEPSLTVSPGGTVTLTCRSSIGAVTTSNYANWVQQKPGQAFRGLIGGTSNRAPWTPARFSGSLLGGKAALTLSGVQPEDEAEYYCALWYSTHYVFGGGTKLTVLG has what recorded kon?
[A] 7.35e+07
